Every entry's value here was drawn from the Immune Epitope Database (IEDB).

Biological target: HLA-B*08:01
Assay: IEDB peptide-MHC binding, purified MHC/direct/fluorescence; filed as Kd, often an IC50 or EC50 that approximates it; bounds were set here for any values at or beyond the usual limits of such assays
Conditions: source organism: Pseudomonas aeruginosa
pKd: −log10 of the molar value.

{"columns": ["chainSequence", "measuredTarget", "pKd"],
 "data": [
  ["RSFAERLDR", "HLA-B*08:01", "≤ 4.70"]
]}

----------
Target: HLA-A*02:01
Experiment: IEDB peptide-MHC binding, purified MHC/competitive/fluorescence; filed as Kd, often an IC50 or EC50 that approximates it; bounds were set here for any values at or beyond the usual limits of such assays
Details: source organism: Influenza A virus (A/Hokkaido/20/89(H3N2))
propertyLabel: Kd

{"columns": ["chainSequence", "measuredTarget", "measured"],
 "data": [
  ["IMLKANFSV", "HLA-A*02:01", "0.3 nM"]
]}

----------
Molecular target: HLA-A*31:01
Experiment: IEDB peptide-MHC binding, purified MHC/competitive/radioactivity; filed as Kd, often an IC50 or EC50 that approximates it; bounds were set here for any values at or beyond the usual limits of such assays
Details: source organism: Vaccinia virus WR
pKd: −log10 of the molar value.

{"columns": ["chainSequence", "sign", "pKd"],
 "data": [
  ["TIANSNIIK", "=", 5.05],
  ["KSQAKKPEVR", "=", 6.52],
  ["VALYRRIQRR", "=", 6.25],
  ["ETITEKTFK", "=", 6.08],
  ["DSEPISILDR", "≤", 4.28],
  ["KQYIVATLMK", "=", 8.08],
  ["LTDTIESAK", "=", 8.09],
  ["VTTKDYFSFK", "=", 6.25],
  ["KTNDINVRR", "=", 8.65],
  ["NTKSDIDVIK", "=", 5.39],
  ["KSCICYGSY", "=", 6.38],
  ["GLCAHILLY", "=", 4.74],
  ["ISIIVLFQR", "=", 8.95],
  ["FSGKSTELIR", "=", 5.72],
  ["LVTRKCPQK", "=", 5.88],
  ["IQLDEKSSIK", "=", 7.09],
  ["ELTTVFIKY", "=", 5.74],
  ["NIKPSKENR", "=", 6.26],
  ["RSSPPIPMSR", "=", 8.95],
  ["LSSIKSKSR", "=", 6.12],
  ["VMNIERQDY", "=", 5.41]
]}

----------
Target: HLA-B*48:01
Assay: IEDB peptide-MHC binding, purified MHC/direct/fluorescence; filed as Kd, often an IC50 or EC50 that approximates it; bounds were set here for any values at or beyond the usual limits of such assays
Settings: source organism: Mammarenavirus lassaense
pKd: −log10 of the molar value.
propertyLabel: pKd

{"columns": ["chainSequence", "measured"],
 "data": [
  ["IEEVMNIVL", "≤ 4.70"]
]}

----------
Biological target: HLA-B*08:01
Assay: IEDB peptide-MHC binding, purified MHC/direct/fluorescence; filed as Kd, often an IC50 or EC50 that approximates it; bounds were set here for any values at or beyond the usual limits of such assays
Conditions: source organism: Brucella abortus 2308
pKd: −log10 of the molar value.
propertyLabel: pKd

{"columns": ["chainSequence", "measured"],
 "data": [
  ["KRASGDPYF", "≤ 4.70"]
]}

----------
Molecular target: HLA-A*02:01
Experiment: IEDB peptide-MHC binding, purified MHC/competitive/fluorescence; bounds were set here for any values at or beyond the usual limits of such assays
Details: source organism: Sudan ebolavirus
pIC50: −log10 of the molar value.
pIC50 values, listed per item
propertyLabel: pIC50

{"columns": ["chainSequence", "sign", "measured"],
 "data": [
  ["HLHQQLSNT", "=", 4.82],
  ["GLNLEGSGV", "=", 5.41],
  ["SMPLGVVTN", "≤", 3.94],
  ["MVPLHIPEG", "=", 4.42],
  ["STSNGLITS", "≤", 3.75],
  ["TVTGILGSL", "=", 4.65]
]}

----------
Target: HLA-B*53:01
Experiment: IEDB peptide-MHC binding, purified MHC/competitive/radioactivity; filed as Kd, often an IC50 or EC50 that approximates it; bounds were set here for any values at or beyond the usual limits of such assays
Conditions: source organism: Dengue virus 4 Philippines/H241/1956

{"columns": ["chainSequence", "Kd [nM]"],
 "data": [
  ["CAIILGGLTW", 549],
  ["YATQTVGPW", 27.9],
  ["LAGFMAYMI", 2120],
  ["YTTMFGGVSW", 119]
]}

----------
Target: HLA-A*68:02
Experiment: IEDB peptide-MHC binding, purified MHC/direct/fluorescence; filed as Kd, often an IC50 or EC50 that approximates it; bounds were set here for any values at or beyond the usual limits of such assays
Conditions: source organism: Limestone Canyon virus
propertyLabel: Kd

{"columns": ["chainSequence", "propertyLabel", "measured"],
 "data": [
  ["KLKKKSAFY", "Kd", "≥ 20 µM"]
]}

----------
Target: HLA-B*53:01
Test: IEDB peptide-MHC binding, purified MHC/competitive/fluorescence; bounds were set here for any values at or beyond the usual limits of such assays
Conditions: source organism: human gammaherpesvirus 4
propertyLabel: IC50 (µM)

{"columns": ["chainSequence", "measuredTarget", "propertyLabel", "unitSpec", "sign", "measured"],
 "data": [
  ["HPVLVTATL", "HLA-B*53:01", "IC50", "µM", "=", 3.91],
  ["MTAASYARY", "HLA-B*53:01", "IC50", "µM", "≥", 20],
  ["MLNRYKLIY", "HLA-B*53:01", "IC50", "µM", "=", 0.171]
]}

----------
Target: HLA-B*51:01
Assay: IEDB peptide-MHC binding, purified MHC/competitive/fluorescence; filed as Kd, often an IC50 or EC50 that approximates it; bounds were set here for any values at or beyond the usual limits of such assays
Conditions: source organism: Orthohantavirus sinnombreense
propertyLabel: Kd

{"columns": ["chainSequence", "measured"],
 "data": [
  ["TEFFMSRKL", "≥ 20 µM"]
]}

----------
Target: HLA-B*35:01
Experiment: IEDB peptide-MHC binding, purified MHC/competitive/radioactivity; filed as Kd, often an IC50 or EC50 that approximates it; bounds were set here for any values at or beyond the usual limits of such assays
Conditions: source organism: Dengue virus 1 Singapore/S275/1990
propertyLabel: Kd (nM)

{"columns": ["chainSequence", "propertyLabel", "measured"],
 "data": [
  ["MASSVLLWM", "Kd", 56.6]
]}

----------
Molecular target: HLA-A*26:01
Assay: IEDB peptide-MHC binding, purified MHC/competitive/radioactivity; filed as Kd, often an IC50 or EC50 that approximates it; bounds were set here for any values at or beyond the usual limits of such assays
Settings: source organism: Dengue virus 1 Brazil/97-11/1997
pKd: −log10 of the molar value.

{"columns": ["chainSequence", "measuredTarget", "pKd"],
 "data": [
  ["ETWALRHPGF", "HLA-A*26:01", 6.18]
]}

----------
Target: HLA-B*18:01
Assay: IEDB peptide-MHC binding, purified MHC/competitive/fluorescence; filed as Kd, often an IC50 or EC50 that approximates it; bounds were set here for any values at or beyond the usual limits of such assays
Conditions: source organism: Reston ebolavirus - Reston (1989)

{"columns": ["chainSequence", "Kd"],
 "data": [
  ["GRYNLVPPK", "≥ 20 µM"]
]}

----------
Biological target: HLA-A*31:01
Test: IEDB peptide-MHC binding, purified MHC/direct/fluorescence; filed as Kd, often an IC50 or EC50 that approximates it; bounds were set here for any values at or beyond the usual limits of such assays
Conditions: source organism: Listeria monocytogenes

{"columns": ["chainSequence", "Kd"],
 "data": [
  ["EIEIEKNKK", "≥ 20 µM"]
]}

----------
Target: HLA-A*02:01
Experiment: IEDB peptide-MHC binding, purified MHC/competitive/fluorescence; filed as Kd, often an IC50 or EC50 that approximates it; bounds were set here for any values at or beyond the usual limits of such assays
Conditions: source organism: Vaccinia virus WR
pKd: −log10 of the molar value.
propertyLabel: pKd

{"columns": ["chainSequence", "measured"],
 "data": [
  ["YLIHDNIMYT", 8.85],
  ["LLFLKDVEP", 7.87]
]}

----------
// reported pKd per item
Target: HLA-B*58:01
Experiment: IEDB peptide-MHC binding, purified MHC/direct/fluorescence; filed as Kd, often an IC50 or EC50 that approximates it; bounds were set here for any values at or beyond the usual limits of such assays
Details: source organism: Yersinia pestis
pKd: −log10 of the molar value.

{"columns": ["chainSequence", "pKd"],
 "data": [
  ["AMQDPNPEV", "≤ 4.70"],
  ["RQLESRLGY", "≤ 4.70"]
]}
